Target: biotinylated human uPAR (human, UniProt Q03405 23-303, limits assumed, biotinylated (site not stated))
Experiment: BLI (Octet) competition on biotinylated human uPAR; competitor (first antibody): ATN-368 (ATN-658)
# key: entry, value: response in competition assay
// response body must contain only the number

Field: example entries. Status: answers known.
M1 (antibody, V domains shown, Mouse hybridoma antibody; also called anti-uPAR antibody M1; parental M1) VH: EVQLQQSGAELVRPGASVKLSCTASGFNIKDEYINWVKQRPEQGLEWIGWIDPENGDTEYASKFQGKATITADTSSNTAYLQLSSLTSEDTAVYYCTGGNYVGWFPYWGQGTLVTVSA VL: QIVLTQSPAIMSASPGEKVTMTCSASSSVSYMHWYQQKSGTSPKRWLYDTSKLASGVPARFSGSGSGTSYSLTISSMEAEDAATYYCQQWSSNPPYTFGGGTKLEIK    -0.0232
M5 (antibody, V domains shown, Mouse hybridoma antibody; also called anti-uPAR antibody M5; parental M5) VH: QVQLKESGPGLVAPSQSLSITCTVSGFSLTNYGVHWVRQPPGKDLEWLVVIWSDGGTTYNSALKSRLSISKDNSKSQVFLKMNSLQTDDTAMYYCARGGRSDLFAYWGQGTLVTVSA VL: DVLMTQTPLSLPVSLGDQASISCRSSQSIVHSNGNTYLEWYLQKPGQSPKLLIYKVSNRFSGVPDRFSGSGSGTDFTLKISRVEAEDLGVYYCFQGSHVPYTFGGGTKLEIK    0.179
M8 (antibody, V domains shown, Mouse hybridoma antibody; also called anti-uPAR antibody M8; parental M8) VH: QIQLVQSGPELKKPGETVKISCKASGNTFTDYGMNWVKQSPGKGLKWMGWINTNTGEPTYADDFKGRFAFSLETSASTAYLQINNLKNEDMATYFCAHYSFDYWGQGTTLTVSS VL: DIQMTQSPASLSVSVGQTVTITCRTSENIYSNLAWYQQKPGKSPQLLVYAATNLADGVPSRFSGSGSGTQYSLKINSLQSEDFGSYYCQHFWGTPWTFGGGTKLEIK    0.31

Here is another binder to look at.
Briefly, response in competition assay measured for M43 (antibody, V domains shown, Mouse hybridoma antibody; also called anti-uPAR antibody M43; parental M43) VH: QVQLQQSGAELARPGASVNLSCKASGYTFTSYGISWVKQRTGQGLEWIGEIYPRSGNTYYNEKFKGKATLTADKSSRTAYMELRSLTSEDSAVYFCAGKDYGSTYADYWGQGTTLTVSS VL: QIVLTQSPAIMSASPGEKVTMTCSASSSVSSRYLHWYQQKSGASPKLWIYGTSNLASGVPARFSGSGSGTSYSLTINSVEAEDAATYYCQQYHSDPLTFGAGTKLELK : 0.342
